tested_target: D(2) dopamine receptor (Mus musculus, UniProt P61168)
Sequence (P61168 whole entry): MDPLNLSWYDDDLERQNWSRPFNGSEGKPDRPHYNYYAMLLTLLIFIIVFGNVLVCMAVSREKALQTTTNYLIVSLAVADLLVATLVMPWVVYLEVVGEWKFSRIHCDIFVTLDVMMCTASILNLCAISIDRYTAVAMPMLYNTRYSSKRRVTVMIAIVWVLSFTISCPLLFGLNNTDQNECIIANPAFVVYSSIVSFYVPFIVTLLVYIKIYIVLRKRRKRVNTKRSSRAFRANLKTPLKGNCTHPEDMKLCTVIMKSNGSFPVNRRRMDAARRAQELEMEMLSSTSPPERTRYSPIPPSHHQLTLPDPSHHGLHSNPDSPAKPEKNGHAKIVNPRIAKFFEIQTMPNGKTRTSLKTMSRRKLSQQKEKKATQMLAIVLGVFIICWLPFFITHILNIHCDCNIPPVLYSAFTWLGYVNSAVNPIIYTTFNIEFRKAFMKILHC
# key: entry, value: pKi
FYI, pKi means -log10 of a concentration in mol per litre.

[[record]]
compound = "CCN1CCC[C@@H]1CNC(=O)c1cc(S(N)(=O)=O)ccc1OC [Sulpiride-R]"
parameter = "pKi"
quantitative_result = 5.97


Q) Give D(2) dopamine receptor (Mus musculus, UniProt P61168) pKi for CCN1CCC[C@H]1CNC(=O)c1cc(S(N)(=O)=O)ccc1OC [Sulpiride-S]
A) 5.83

The measured values listed here are drawn from BindingDB's records for doi:10.1002/(SICI)1098-2396(199702)25:2.
